Data provenance: ChEMBL document CHEMBL1821564

Target: Amine oxidase [flavin-containing] B (Homo sapiens, UniProt P27338)
Sequence (P27338 whole entry): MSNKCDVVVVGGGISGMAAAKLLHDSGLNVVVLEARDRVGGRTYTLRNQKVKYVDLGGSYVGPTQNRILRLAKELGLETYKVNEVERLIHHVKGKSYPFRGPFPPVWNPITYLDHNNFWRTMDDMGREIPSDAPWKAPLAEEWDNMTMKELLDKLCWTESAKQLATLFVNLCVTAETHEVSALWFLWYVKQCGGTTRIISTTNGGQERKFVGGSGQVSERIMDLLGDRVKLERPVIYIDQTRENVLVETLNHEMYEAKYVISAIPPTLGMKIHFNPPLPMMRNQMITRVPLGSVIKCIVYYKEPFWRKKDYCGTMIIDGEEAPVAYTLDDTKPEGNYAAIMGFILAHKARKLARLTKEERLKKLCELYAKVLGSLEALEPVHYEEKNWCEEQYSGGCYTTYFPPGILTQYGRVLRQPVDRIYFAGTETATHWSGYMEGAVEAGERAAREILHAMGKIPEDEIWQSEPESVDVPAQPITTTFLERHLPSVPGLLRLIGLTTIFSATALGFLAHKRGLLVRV
Test: Inhibition of human recombinant MAO-B expressed in BTI-TN-5B1-4 insect cells using p-tyramine substrate by Amplex Red MAO assay
Conditions: bti-tn-5b1-4

- compound: "CC(=O)N1N=C(c2ccc(Br)cc2)OC1c1ccc(Cl)cc1 (racemic)"
  IC50 (nM): 221
- compound: "CC(=O)N1N=C(c2ccccc2)OC1c1ccc(C)cc1 (racemic)"
  IC50 (nM): 19400
- compound: "CC(=O)N1N=C(c2ccc(Cl)cc2)OC1c1ccc(Cl)cc1 (racemic)"
  IC50 (nM): 115

###

Species: Homo sapiens
Assay: Selectivity index, ratio of IC50 for human recombinant MAO-A to IC50 for human recombinant MAO-B
Below: a set of entries, each annotated with reported Ratio IC50.
readoutLabel: Ratio IC50

- compound: "COc1ccc(C2OC(c3ccc(C)cc3)=NN2C(C)=O)cc1 (stereo not given)"
  reportedValue: "> 1.34"
- compound: "CC(=O)N1N=C(c2ccccc2)O[C@@H]1c1ccc(C)cc1"
  reportedValue: "> 12"
- compound: "CC(=O)N1N=C(c2ccccc2)OC1c1ccc(C)cc1 (stereo in doubt; 4y)"
  reportedValue: "> 5.2"
- compound: "CC(=O)N1N=C(c2ccc(Cl)cc2)OC1c1ccc(Cl)cc1 (racemic)"
  reportedValue: "> 867"
- compound: "CC(=O)N1N=C(c2ccncc2)OC1c1ccc(N(C)C)cc1 (stereo not given)"
  reportedValue: "> 2.14"
